Test system: c-Abl (mouse)
Test: phosphorylation enrichment, bacterial display (enrichment ratio); higher = better substrate or ligand; peptides without Tyr show the background
Catalogue of phosphorylation enrichment values
Respond using a number only.

Worked cases, phosphorylation enrichment given:
GET phosphorylation enrichment where system = c-Abl (mouse) and item = PIAPVYAASMV [ACAT1_Y331]
48.5

GET phosphorylation enrichment where system = c-Abl (mouse) and item = KHGGNYVPAPK [OSCP1_Y237]
0.822

GET phosphorylation enrichment where system = c-Abl (mouse) and item = LKVDVYGRSHK [FUT3_Y222]
0.629

GET phosphorylation enrichment where system = c-Abl (mouse) and item = TGILLYGLASR [QARS1_Y57]
0.756

GET phosphorylation enrichment where system = c-Abl (mouse) and item = FDDIAHIRKTL [PIK3CA_Y1021_Y1021H]
0.611

Continuing:
GET phosphorylation enrichment where system = c-Abl (mouse) and item = IGMSSYVMLAS [GGCX_Y301_F299S]
0.875

GET phosphorylation enrichment where system = c-Abl (mouse) and item = RKIMGYSIRTI [IDS_Y490_I485R]
0.759

====

Test system: Fer (mouse)
Assay: phosphorylation enrichment, bacterial display (enrichment ratio); higher = better substrate or ligand; peptides without Tyr show the background
measurement-label: phosphorylation enrichment

Worked cases, phosphorylation enrichment given:
Provide one value: measured phosphorylation enrichment of KKMEVYQSIAD [MYBPC3_Y548_L545M]
0.508

Provide one value: measured phosphorylation enrichment of GGQVFYNSEYG [FLT4_Y1333]
0.36

Provide one value: measured phosphorylation enrichment of FSIAQYCCRMG [LRRK2_Y2023_G2019S_YF]
0.4

Provide one value: measured phosphorylation enrichment of GFAIVYGTIIL [GPR179_Y460]
0.514

Provide one value: measured phosphorylation enrichment of DVCKNYTEAKD [ALB_Y343_A344T]
0.511

Continuing:
Provide one value: measured phosphorylation enrichment of HSLHDYKEALM [ADA2_Y337]
0.44

Provide one value: measured phosphorylation enrichment of FLAATYPTVGQ [NF1_Y2508_YF]
0.593

====

Biological target: FGFR1 (UniProt P11362)
Sequence (P11362 whole entry, looked up): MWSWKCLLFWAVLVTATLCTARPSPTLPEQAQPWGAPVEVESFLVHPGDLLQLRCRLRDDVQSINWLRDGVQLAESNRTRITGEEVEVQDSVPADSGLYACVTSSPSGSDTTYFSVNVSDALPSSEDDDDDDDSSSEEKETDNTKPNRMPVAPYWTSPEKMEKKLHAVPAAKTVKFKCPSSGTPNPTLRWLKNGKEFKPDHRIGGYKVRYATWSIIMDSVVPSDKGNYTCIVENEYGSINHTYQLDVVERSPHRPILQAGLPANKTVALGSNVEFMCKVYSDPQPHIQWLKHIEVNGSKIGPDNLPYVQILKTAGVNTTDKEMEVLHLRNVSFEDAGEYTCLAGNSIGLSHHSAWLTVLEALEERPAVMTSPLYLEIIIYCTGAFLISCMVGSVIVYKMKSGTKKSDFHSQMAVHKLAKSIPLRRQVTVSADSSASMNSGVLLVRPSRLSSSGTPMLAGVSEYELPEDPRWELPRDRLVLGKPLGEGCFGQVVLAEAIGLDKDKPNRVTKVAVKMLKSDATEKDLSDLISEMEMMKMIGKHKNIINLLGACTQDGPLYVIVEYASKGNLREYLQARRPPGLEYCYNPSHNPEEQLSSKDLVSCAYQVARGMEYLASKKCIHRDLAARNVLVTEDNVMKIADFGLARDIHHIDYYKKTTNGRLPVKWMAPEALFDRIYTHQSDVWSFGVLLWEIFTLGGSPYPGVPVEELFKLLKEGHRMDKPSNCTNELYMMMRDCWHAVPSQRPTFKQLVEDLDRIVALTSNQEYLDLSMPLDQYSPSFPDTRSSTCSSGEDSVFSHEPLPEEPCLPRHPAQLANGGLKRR
Assay: phosphorylation enrichment, bacterial display (enrichment ratio); higher = better substrate or ligand; peptides without Tyr show the background
measurement-label: phosphorylation enrichment
Respond using a number only.

Worked cases, phosphorylation enrichment given:
Provide one value: measured phosphorylation enrichment of FFRNVYHLASV [RBL1_Y796_K794N_YF]
0.486

Provide one value: measured phosphorylation enrichment of REVPVYISEDS [SYNM_Y460_G462S]
1.16

Provide one value: measured phosphorylation enrichment of FAKTQYPDVYA [CRX_Y63]
0.533

Provide one value: measured phosphorylation enrichment of FLTQHYDAIPQ [ANG_Y38_K41I]
0.639

Continuing:
Provide one value: measured phosphorylation enrichment of LHVKMYNFLRS [ADGRG7_Y760_R756H]
0.714

Provide one value: measured phosphorylation enrichment of FTNRSYDLDYD [MYC_Y12_N11S]
0.561

Provide one value: measured phosphorylation enrichment of QSLEPYTKQQL [STAT3_Y640_V637L]
0.452

====

Catalogue of phosphorylation enrichment values
Target: Fes (UniProt P07332)
Sequence (P07332 whole entry, looked up): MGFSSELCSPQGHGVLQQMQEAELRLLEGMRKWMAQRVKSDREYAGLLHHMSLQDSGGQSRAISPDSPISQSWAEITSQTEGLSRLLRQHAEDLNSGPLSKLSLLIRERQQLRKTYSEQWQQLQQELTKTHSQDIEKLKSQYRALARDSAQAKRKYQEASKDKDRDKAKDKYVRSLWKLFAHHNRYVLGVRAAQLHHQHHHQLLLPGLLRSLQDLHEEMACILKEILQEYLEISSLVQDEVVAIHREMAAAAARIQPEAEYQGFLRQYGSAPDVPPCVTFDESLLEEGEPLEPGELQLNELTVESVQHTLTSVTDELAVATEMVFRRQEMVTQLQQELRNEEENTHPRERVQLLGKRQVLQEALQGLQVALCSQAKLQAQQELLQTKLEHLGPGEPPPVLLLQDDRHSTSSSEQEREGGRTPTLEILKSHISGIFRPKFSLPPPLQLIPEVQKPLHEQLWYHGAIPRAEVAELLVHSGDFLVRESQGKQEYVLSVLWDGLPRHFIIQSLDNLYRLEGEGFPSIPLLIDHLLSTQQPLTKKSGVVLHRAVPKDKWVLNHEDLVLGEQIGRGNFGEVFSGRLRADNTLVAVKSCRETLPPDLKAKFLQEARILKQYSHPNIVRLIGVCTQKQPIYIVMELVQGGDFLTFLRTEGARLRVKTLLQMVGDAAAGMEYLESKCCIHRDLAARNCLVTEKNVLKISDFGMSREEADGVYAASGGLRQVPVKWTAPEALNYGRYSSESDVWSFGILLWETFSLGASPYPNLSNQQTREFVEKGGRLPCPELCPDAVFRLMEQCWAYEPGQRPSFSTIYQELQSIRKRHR
Test: phosphorylation enrichment, bacterial display (enrichment ratio); higher = better substrate or ligand; peptides without Tyr show the background
Respond using a number only.

Worked cases, phosphorylation enrichment given:
Provide one value: measured phosphorylation enrichment of RLLVLYPWTQR [HBB_Y36_V35L]
1.26

Provide one value: measured phosphorylation enrichment of RGYRVCYTPDS [PTPRF_Y450_Y450C]
1.61

Provide one value: measured phosphorylation enrichment of VLALWYYYLTH [ZDHHC23_Y127]
1.64

Provide one value: measured phosphorylation enrichment of QMEKICTQQIQ [CCNB1IP1_Y125_Y125C]
1.64

Provide one value: measured phosphorylation enrichment of SIKDKYVTAVF [KCNH2_Y611_L615V_YF]
0.794

Continuing:
Provide one value: measured phosphorylation enrichment of GYAGKYIAMVM [CYP19A1_Y441_C437Y]
0.904

Provide one value: measured phosphorylation enrichment of TNFCLYLRSLE [MTM1_Y71_R69C_YF]
1.69

Provide one value: measured phosphorylation enrichment of WQQQSYLDFGI [CTNNB1_Y30_S33F]
1.04

Provide one value: measured phosphorylation enrichment of MNPPPYSQLLS [FGF23_Y154_F157L]
0.623

====

Target: SHP2-C SH2;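 further: peptide library displayed on the E. coli surface as eCPX fusions, selected cells deep-sequenced, score is each peptide's frequency after selection divided by its frequency in the input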
Assay: SH2 binding enrichment of the phosphorylated peptide, bacterial display (enrichment ratio); higher = better substrate or ligand; peptides without Tyr show the background
Note to self: values exactly at 0.8 are yes. So SH2 binding enrichment at or above 0.8 is yes, below is no.

Identify whether the reported SH2 binding enrichment of the following sequence is 0.8 or greater: TGEKLYQHKEF [ZNF283_Y627_R629H]
no

Identify whether the reported SH2 binding enrichment of the following sequence is 0.8 or greater: GADDSYYTVRS [ZAP70_Y492_A495V]
no

Identify whether the reported SH2 binding enrichment of the following sequence is 0.8 or greater: QFQLKYSETPF [SIX6OS1_Y129_YF]
yes

Continuing:
Identify whether the reported SH2 binding enrichment of the following sequence is 0.8 or greater: QSLEPYTKQQL [STAT3_Y640_V637L]
no

Identify whether the reported SH2 binding enrichment of the following sequence is 0.8 or greater: QGQHWYSSSDK [CASP10_Y9]
yes

Identify whether the reported SH2 binding enrichment of the following sequence is 0.8 or greater: WRPFGYPRCRR [BCS1L_Y181_R184C]
no

Identify whether the reported SH2 binding enrichment of the following sequence is 0.8 or greater: AALKLYHVSDS [VIL1_Y256]
yes

====

Catalogue of phosphorylation enrichment values
Target: Fyn (UniProt P06241)
Sequence (P06241 whole entry, looked up): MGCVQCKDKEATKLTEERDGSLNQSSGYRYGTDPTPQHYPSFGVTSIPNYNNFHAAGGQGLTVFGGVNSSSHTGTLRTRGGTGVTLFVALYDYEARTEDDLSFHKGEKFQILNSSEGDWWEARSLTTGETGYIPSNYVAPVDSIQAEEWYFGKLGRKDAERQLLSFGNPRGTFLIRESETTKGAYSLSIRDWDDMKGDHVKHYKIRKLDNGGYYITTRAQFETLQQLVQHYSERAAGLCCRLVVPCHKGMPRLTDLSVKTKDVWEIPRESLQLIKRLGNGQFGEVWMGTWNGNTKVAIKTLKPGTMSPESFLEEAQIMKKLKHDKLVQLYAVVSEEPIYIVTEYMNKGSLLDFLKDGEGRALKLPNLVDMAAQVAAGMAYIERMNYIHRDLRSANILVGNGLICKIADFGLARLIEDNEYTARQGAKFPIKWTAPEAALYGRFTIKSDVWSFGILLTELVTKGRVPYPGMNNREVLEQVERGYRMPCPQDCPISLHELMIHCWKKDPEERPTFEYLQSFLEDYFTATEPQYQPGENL
Assay: phosphorylation enrichment, bacterial display (enrichment ratio); higher = better substrate or ligand; peptides without Tyr show the background
Respond using a number only.

Worked cases, phosphorylation enrichment given:
Provide one value: measured phosphorylation enrichment of GRLPEYNTRIA [CCDC151_Y542]
0.372

Provide one value: measured phosphorylation enrichment of RPYVYYYSYLL [PTEN_Y177_R173P]
1.42

Provide one value: measured phosphorylation enrichment of YTGSTYRVGDT [FN1_Y106_N104S]
0.464

Continuing:
Provide one value: measured phosphorylation enrichment of FSIAQYCCRMG [LRRK2_Y2023_G2019S_YF]
0.401

Provide one value: measured phosphorylation enrichment of SSLEDYVRETN [GIMAP6_Y176_G171S]
0.485

Provide one value: measured phosphorylation enrichment of MSRDVYSTDYY [NTRK2_Y702]
2.77

Provide one value: measured phosphorylation enrichment of MRALTYCDLHK [KCNH2_Y827_V822M]
0.407

====

Biological target: MERTK (UniProt Q12866)
Sequence (Q12866 whole entry, looked up): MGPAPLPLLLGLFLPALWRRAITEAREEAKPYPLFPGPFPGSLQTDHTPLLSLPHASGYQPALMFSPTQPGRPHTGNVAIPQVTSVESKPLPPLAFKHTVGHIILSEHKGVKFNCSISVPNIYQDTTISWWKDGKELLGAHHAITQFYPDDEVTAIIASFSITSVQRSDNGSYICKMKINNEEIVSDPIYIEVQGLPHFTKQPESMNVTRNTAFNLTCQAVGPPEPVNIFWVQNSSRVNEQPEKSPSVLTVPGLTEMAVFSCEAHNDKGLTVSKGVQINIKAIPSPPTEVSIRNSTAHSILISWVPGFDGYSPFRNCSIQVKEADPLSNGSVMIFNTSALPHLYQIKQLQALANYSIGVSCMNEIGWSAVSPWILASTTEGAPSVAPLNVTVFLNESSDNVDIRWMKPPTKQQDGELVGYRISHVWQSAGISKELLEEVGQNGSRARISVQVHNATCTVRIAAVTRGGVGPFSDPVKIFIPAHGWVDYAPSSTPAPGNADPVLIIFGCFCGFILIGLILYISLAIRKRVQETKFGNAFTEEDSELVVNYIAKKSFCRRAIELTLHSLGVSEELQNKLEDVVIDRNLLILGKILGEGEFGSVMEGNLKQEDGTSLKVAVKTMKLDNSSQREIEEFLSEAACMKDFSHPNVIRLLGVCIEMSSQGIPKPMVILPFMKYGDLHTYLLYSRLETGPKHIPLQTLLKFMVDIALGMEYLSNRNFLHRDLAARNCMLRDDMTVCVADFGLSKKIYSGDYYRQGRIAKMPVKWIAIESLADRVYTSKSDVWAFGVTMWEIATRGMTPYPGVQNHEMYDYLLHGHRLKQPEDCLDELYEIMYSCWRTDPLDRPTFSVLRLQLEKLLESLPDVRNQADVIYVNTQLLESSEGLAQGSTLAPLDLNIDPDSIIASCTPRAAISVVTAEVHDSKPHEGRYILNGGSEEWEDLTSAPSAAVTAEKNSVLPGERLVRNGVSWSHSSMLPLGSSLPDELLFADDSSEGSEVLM
Test: phosphorylation enrichment, bacterial display (enrichment ratio); higher = better substrate or ligand; peptides without Tyr show the background
Catalogue of phosphorylation enrichment values

GET phosphorylation enrichment where system = MERTK (UniProt Q12866) and item = LVPPRYVRSEI [PKP2_Y194_A195V]
0.588

GET phosphorylation enrichment where system = MERTK (UniProt Q12866) and item = RELGEYALAEY [ALDH1A3_Y492]
0.55

GET phosphorylation enrichment where system = MERTK (UniProt Q12866) and item = GLGGGYGGASG [KRT8_Y54]
0.285

GET phosphorylation enrichment where system = MERTK (UniProt Q12866) and item = FKDGQYWIRGR [ACSF3_Y466]
0.379

GET phosphorylation enrichment where system = MERTK (UniProt Q12866) and item = LKVDVYGRSHK [FUT3_Y222]
0.37

Continuing:
GET phosphorylation enrichment where system = MERTK (UniProt Q12866) and item = PMWHPYKADVT [TP53TG5_Y255_V257A]
0.428

GET phosphorylation enrichment where system = MERTK (UniProt Q12866) and item = EKIANYKEGTY [CLRN1_Y171]
0.41

GET phosphorylation enrichment where system = MERTK (UniProt Q12866) and item = SGETKYNPTEA [NBEAL2_Y2748_E2747K]
0.449

GET phosphorylation enrichment where system = MERTK (UniProt Q12866) and item = PRAEWYRDDVL [MYOM2_Y317]
0.681

GET phosphorylation enrichment where system = MERTK (UniProt Q12866) and item = SGGSSYGSGGG [KRT1_Y532]
0.362

GET phosphorylation enrichment where system = MERTK (UniProt Q12866) and item = VVSMNYRVGAL [BCHE_Y174]
0.362

GET phosphorylation enrichment where system = MERTK (UniProt Q12866) and item = VDTRAYFTSAT [MT-CO1_Y304]
0.366

GET phosphorylation enrichment where system = MERTK (UniProt Q12866) and item = TFVKSYTIHFS [F5_Y2153_M2148T_YF]
0.434

GET phosphorylation enrichment where system = MERTK (UniProt Q12866) and item = FLKDVYVDSKD [NDUFAF4_Y69]
0.471

GET phosphorylation enrichment where system = MERTK (UniProt Q12866) and item = WQQQSYLDSGS [CTNNB1_Y30_I35S]
0.397

GET phosphorylation enrichment where system = MERTK (UniProt Q12866) and item = HFMELYDLNRD [BBS2_Y648_R643H_YF]
0.563

GET phosphorylation enrichment where system = MERTK (UniProt Q12866) and item = KLQKKYGPISS [CYP17A1_Y60_Y64S]
0.378
